# test.method.notes: protein stability index of a GFP-peptide fusion (yeast GPS) (PSI 1-4); higher = more stable; sorted into four equal gates, so the index is relative within each strain
# test.settings: san1∆
property.name: protein stability index
Lab note: write the figure by itself, no unit.

Consider the worked cases shown below.
sequence.input	protein stability index
YSTCPSETDLNDIPLGS [SRB8]	2.36
QAVETVGQAGRPKKITG [RPN1]	2.31

Would you kindly look at the next entry?
GET /values?readout=protein stability index&item= ISSSAIPYSRNAPAWFK [RPS13]
2.21

---

# test.method.notes: protein stability index of a GFP-peptide fusion (yeast GPS) (PSI 1-4); higher = more stable; sorted into four equal gates, so the index is relative within each strain
# test.settings: san1∆
Outcome label depends on protein stability index relative to 3: at/above gives T, below gives F.

Is reported protein stability index greater than or equal to 3 here: RSAWNNNNDNDANRNAN [GRR1]
F

Is reported protein stability index greater than or equal to 3 here: NGCSGADVKGVCTEAGM [RPT6]
T

Is reported protein stability index greater than or equal to 3 here: ETRPAQVILPMSPNHGT [FAS2]
F

Is reported protein stability index greater than or equal to 3 here: DDRGPVLESIVARTFWA [BRR2]
F

Is reported protein stability index greater than or equal to 3 here: FMLSDDEGMESIEMEEE [RRI2]
T

---

# test.method.notes: protein stability index of a GFP-peptide fusion (yeast GPS) (PSI 1-4); higher = more stable; sorted into four equal gates, so the index is relative within each strain
# test.settings: doa10∆
Outcome label depends on protein stability index relative to 3: at/above gives Fulfilled, below gives Not fulfilled.

Solved entries:
sequence.input	class
VSEITKLKFFPSGEALI [RPN14]	Not fulfilled
AAEQQSKAFKESSDFGA [SRP54]	Not fulfilled
EDDTQIVTGNLVLDLLT [IRR1]	Not fulfilled
KPPTQKTDTKVSFRTHN [SRP21]	Not fulfilled
LVSDSEIIDLNLHSFTK [POP6]	Not fulfilled

Is reported protein stability index greater than or equal to 3 here: MVKGLLKSFTESTAGSA [ECM29]
Fulfilled

Is reported protein stability index greater than or equal to 3 here: KTVDSSIQPIESNIKMT [SSN2]
Not fulfilled

Is reported protein stability index greater than or equal to 3 here: LKSPVLSKLCVPVANQF [QCR7]
Not fulfilled

Is reported protein stability index greater than or equal to 3 here: PYPGSPMHSIMPNSSLQ [DSN1]
Not fulfilled

Is reported protein stability index greater than or equal to 3 here: IEQCKHPLHELIIQYPP [ISW2]
Fulfilled

Is reported protein stability index greater than or equal to 3 here: VTVDADIDDILKKGEQK [ISW2]
Not fulfilled

Is reported protein stability index greater than or equal to 3 here: NMVSLRGRNDTLERVHL [GRR1]
Not fulfilled

---

A collection of sequences and their measured protein stability index
# test.method.notes: protein stability index of a GFP-peptide fusion (yeast GPS) (PSI 1-4); higher = more stable; sorted into four equal gates, so the index is relative within each strain
# test.settings: san1∆
Lab note: write the figure by itself, no unit.

sequence.input	protein stability index
SIRSRRPYQVNVLIGGY [PRE1]	1.71

GET /values?readout=protein stability index&item= ENGIEVELLDSNDRVNP [ITC1]
3.29

GET /values?readout=protein stability index&item= IPHFIDNNSSLNVSNTK [PRP8]
2.66

GET /values?readout=protein stability index&item= AVQNESVSSPIELNFDA [QCR2]
2.86

GET /values?readout=protein stability index&item= VPMKEENLEESFLSKHA [SSN2]
2.98

GET /values?readout=protein stability index&item= WCQEAFPSSETTSLNPI [BRR2]
3.48

GET /values?readout=protein stability index&item= LNSYHIKNGRIYFTVPN [RGR1]
2.19

---

# test.method.notes: protein stability index of a GFP-peptide fusion (yeast GPS) (PSI 1-4); higher = more stable; sorted into four equal gates, so the index is relative within each strain
# test.settings: pdr5∆
property.name: protein stability index

sequence.input	data.value
DDDDSRKSAPVDSWDRE [SKP1]	3.21
IVHHPYQSLKQIVQVLK [SSN8]	1.58
AKSTVETFISSMTATAD [RIP1]	2.13
SCGEEEFFSTNWLSIFN [REC8]	3.29
SELLARDIFQEDEENSD [RGR1]	3.37
TKKLIQKTVFDELCKLV [SRP54]	1.51

GET /values?readout=protein stability index&item= TATYNDNMSEEQWLRQF [SNF2]
3.33

GET /values?readout=protein stability index&item= VPSTTNVNMTVNTMGTG [MED6]
3.37

GET /values?readout=protein stability index&item= KPQRTNTLRMKHGTYDK [RPB2]
2.85

GET /values?readout=protein stability index&item= WFLDHNYIENMNEMCKK [RPN8]
3.26

GET /values?readout=protein stability index&item= SRMTVGKMIELISGKAG [RET1]
2.98

---

# test.method.notes: protein stability index of a GFP-peptide fusion (yeast GPS) (PSI 1-4); higher = more stable; sorted into four equal gates, so the index is relative within each strain
# test.settings: ubr1∆
Outcome label depends on protein stability index relative to 3: at/above gives YES, below gives NO.

Solved entries:
sequence.input	class
RREELQQRIREIGLLPE [SMC3]	YES
LTLQEDYIKDEQRHLKR [RPT3]	YES
ARVILYLKNVLFAFNGV [SIN4]	NO

Is reported protein stability index greater than or equal to 3 here: TTNNNNTNNNNTNNNNN [SWI1]
YES

Is reported protein stability index greater than or equal to 3 here: EFDEQYGTRPLVLPPVV [SNF2]
NO

Is reported protein stability index greater than or equal to 3 here: KDAEDETSSDGSKSDGS [RPN1]
YES

Is reported protein stability index greater than or equal to 3 here: DDSFFNETNDKKRNPSK [PRP28]
NO

Is reported protein stability index greater than or equal to 3 here: GTFKSTLDREYITLKAT [QCR2]
NO

Is reported protein stability index greater than or equal to 3 here: HKHALHGTAKALAAAKK [RPL29]
NO

Is reported protein stability index greater than or equal to 3 here: IAFASNYGIVELDPECQ [RRP43]
NO

---

# test.method.notes: protein stability index of a GFP-peptide fusion (yeast GPS) (PSI 1-4); higher = more stable; sorted into four equal gates, so the index is relative within each strain
# test.settings: pdr5∆
A collection of sequences and their measured protein stability index
Lab note: write the figure by itself, no unit.

sequence.input	data.value
YSPTSPSYSPTSPGYSP [RPO21]	2.94

GET /values?readout=protein stability index&item= EQIDENWSKEDLQKLLK [SWI3]
3.08

GET /values?readout=protein stability index&item= TRDEETTKLAFLVEYEG [SIR4]
3.06

GET /values?readout=protein stability index&item= SGSTEKAFKICEAAVEI [SIR3]
2.71

---

A collection of sequences and their measured protein stability index
# test.method.notes: protein stability index of a GFP-peptide fusion (yeast GPS) (PSI 1-4); higher = more stable; sorted into four equal gates, so the index is relative within each strain
# test.settings: ubr1∆
Lab note: write the figure by itself, no unit.

Consider the worked cases shown below.
sequence.input	data.value
NSSTSSTSNTPSPPNVI [YDL088C/ASM4]	3.06
EIGGSDLKESMVKGLLK [ECM29]	2.76
AECISLICSIGLHSSEY [ECM29]	2.62
ESPLSVAIQQGDIKPEF [YML103C/NUP188]	2.38
PDAKIQVRRDIPSAAFN [YMR129W/POM152]	3.24

GET /values?readout=protein stability index&item= SSEGFYSKIKHLGLDDP [SIR2]
1.2

GET /values?readout=protein stability index&item= SLEDPQVRKKQIETINF [YDL116W/NUP84]
2.23

---

# test.method.notes: protein stability index of a GFP-peptide fusion (yeast GPS) (PSI 1-4); higher = more stable; sorted into four equal gates, so the index is relative within each strain
# test.settings: ubr1∆
Outcome label depends on protein stability index relative to 3: at/above gives YES, below gives NO.

Solved entries:
sequence.input	class
KGSRQCRVCSSHTGLVR [RPS29B]	NO
SIIQSKQDCVDWFTYSY [BRR2]	NO

Is reported protein stability index greater than or equal to 3 here: THLHEALDIVCSDFVKI [NUT1]
NO

Is reported protein stability index greater than or equal to 3 here: DFPELKPYKQVKQIAPA [FAS2]
NO

Is reported protein stability index greater than or equal to 3 here: YLKDNITLLTRQRELLI [GRR1]
NO

---

A collection of sequences and their measured protein stability index
# test.method.notes: protein stability index of a GFP-peptide fusion (yeast GPS) (PSI 1-4); higher = more stable; sorted into four equal gates, so the index is relative within each strain
# test.settings: pdr5∆
Lab note: write the figure by itself, no unit.

Consider the worked cases shown below.
sequence.input	data.value
EEKPGLIITRKAFKNNS [SMC4]	2.88
EMSNKVLKVDKRFMNTS [BRR2]	2.96
IDLCHDFPHLTPKLQTQ [YCS4]	2.65

GET /values?readout=protein stability index&item= ESIDVDMDAESNESQNG [SMC3]
2.91

GET /values?readout=protein stability index&item= LKEPVEDIIKRTSPIDN [NUT2]
3.09

GET /values?readout=protein stability index&item= LCLTEFENCYLEGNDIH [FAS1]
3.26

GET /values?readout=protein stability index&item= QPDENTKEMDEVEEDDE [SWI3]
3.49

GET /values?readout=protein stability index&item= TFTIQLLKLTKVFIRES [YML103C/NUP188]
3.12

GET /values?readout=protein stability index&item= VHDKILEDLVFPTEIVG [RPS7A]
3.15

GET /values?readout=protein stability index&item= MTSENPDVLLSRVINVV [RRP6]
1.61

GET /values?readout=protein stability index&item= RRRAFKRSQKKHKKKHL [RPB4]
3.1

GET /values?readout=protein stability index&item= GSVFNMNGNTNANTVFA [YOR098C/NUP1]
3

GET /values?readout=protein stability index&item= PFREFLQVLIDQLDSEA [ECM29]
2.6

GET /values?readout=protein stability index&item= WNLNATKPNVLNDPSLK [SIN4]
2.94

GET /values?readout=protein stability index&item= FGKTVKDGPFYTGSMSL [RPC31]
3.17

GET /values?readout=protein stability index&item= KFFMKHGLILELQKIWQ [SRB5]
3.02

GET /values?readout=protein stability index&item= PILVTLVSDSEIIDLNL [POP6]
2.47

GET /values?readout=protein stability index&item= AVTEREVLVTPGLEFLD [MCD1]
3.15

GET /values?readout=protein stability index&item= YLHQNWVLHRDLKPANI [SSN3]
2.74
